Reference source for all entries: patent US9416126B2

Kindly state pIC50 for each of the entries shown.
Molecular target: LRRK2(G2019S mutation, GST-LRRK2(amino acids 970-2527)) (Homo sapiens (Human), UniProt Q5S007, G2019S)
Sequence (Q5S007 970-2527 G2019S): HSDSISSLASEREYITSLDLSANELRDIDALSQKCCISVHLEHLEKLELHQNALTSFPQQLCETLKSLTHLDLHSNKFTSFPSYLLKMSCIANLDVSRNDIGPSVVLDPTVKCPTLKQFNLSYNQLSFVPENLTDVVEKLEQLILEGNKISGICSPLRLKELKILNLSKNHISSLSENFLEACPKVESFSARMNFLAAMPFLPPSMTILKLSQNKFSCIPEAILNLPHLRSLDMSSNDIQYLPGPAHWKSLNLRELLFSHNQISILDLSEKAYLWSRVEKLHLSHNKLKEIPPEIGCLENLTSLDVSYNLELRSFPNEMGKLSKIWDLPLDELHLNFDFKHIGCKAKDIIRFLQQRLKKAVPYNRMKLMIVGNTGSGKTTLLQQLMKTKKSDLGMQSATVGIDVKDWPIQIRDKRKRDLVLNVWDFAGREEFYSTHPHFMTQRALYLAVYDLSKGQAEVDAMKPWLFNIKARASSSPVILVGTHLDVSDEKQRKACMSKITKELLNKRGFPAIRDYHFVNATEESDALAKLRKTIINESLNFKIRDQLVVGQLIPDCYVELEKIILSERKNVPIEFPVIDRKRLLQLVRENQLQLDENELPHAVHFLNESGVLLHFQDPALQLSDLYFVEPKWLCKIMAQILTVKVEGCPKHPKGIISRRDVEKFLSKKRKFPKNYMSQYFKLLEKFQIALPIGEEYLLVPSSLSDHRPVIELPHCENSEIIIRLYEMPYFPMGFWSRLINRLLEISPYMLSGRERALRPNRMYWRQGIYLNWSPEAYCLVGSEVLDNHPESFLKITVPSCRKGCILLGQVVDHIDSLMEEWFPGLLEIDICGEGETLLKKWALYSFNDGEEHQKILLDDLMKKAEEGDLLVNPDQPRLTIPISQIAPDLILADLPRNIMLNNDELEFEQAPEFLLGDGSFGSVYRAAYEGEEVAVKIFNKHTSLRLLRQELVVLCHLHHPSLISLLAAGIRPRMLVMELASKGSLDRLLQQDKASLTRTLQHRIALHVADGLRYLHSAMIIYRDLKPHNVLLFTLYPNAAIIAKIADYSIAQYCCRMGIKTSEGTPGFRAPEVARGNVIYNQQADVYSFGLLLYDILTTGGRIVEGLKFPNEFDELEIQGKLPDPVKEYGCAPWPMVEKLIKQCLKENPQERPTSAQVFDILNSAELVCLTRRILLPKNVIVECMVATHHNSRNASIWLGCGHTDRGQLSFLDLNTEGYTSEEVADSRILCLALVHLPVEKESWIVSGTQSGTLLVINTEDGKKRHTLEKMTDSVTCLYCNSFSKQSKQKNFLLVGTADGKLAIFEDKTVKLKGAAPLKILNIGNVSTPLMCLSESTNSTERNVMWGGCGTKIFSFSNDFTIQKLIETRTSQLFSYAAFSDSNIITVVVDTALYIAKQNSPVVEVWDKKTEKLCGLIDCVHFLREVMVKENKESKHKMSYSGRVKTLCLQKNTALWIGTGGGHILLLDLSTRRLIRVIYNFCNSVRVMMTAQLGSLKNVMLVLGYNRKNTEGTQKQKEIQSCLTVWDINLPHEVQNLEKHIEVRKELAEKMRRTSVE
Experiment: LRRK2 Km ATP LanthaScreen Assay
Format: biochemical
Conditions: Km ATP (184 μM ATP solution), G2019S LRRK2, mean IC50
One number for each entry, as −log10 of the molar value.

CC(C)Oc1ccc2[nH]nc(-c3cc(N4CCn5nc(C6CC6)nc5C4)ncn3)c2c1 ... 7.74
COCCOC1CCN(c2cc(-c3n[nH]c4ccc(-c5cnn(C)c5)cc34)ncn2)CC1 ... 8.73
Cn1cc(-c2ccc3[nH]nc(-c4cc(N5CCc6nccnc6C5)ncn4)c3c2)cn1 ... 8.57

Could you report pIC50 for every entry in the following list?
1. c1cncc(-c2ccc3[nH]nc(-c4cc(N5CCOCC5)ncn4)c3c2)c1
2. COc1ccc2[nH]nc(-c3cc(N4C[C@H](F)[C@@H](F)C4)ncn3)c2c1 [Example E2]
3. Cn1cc(-c2cc3c(-c4cc(N5CCN6C(=O)OCC6C5)ncn4)n[nH]c3cc2F)cn1 (centres unmarked)
4. COc1ccc2[nH]nc(-c3cc(N4CCN(C5CC5)CC4)ncn3)c2c1
5. CC(C)Oc1ccc2[nH]nc(-c3cc(N4CCc5nc(C6CC6)oc5C4)ncn3)c2c1
6. COC[C@H](C)Oc1ccc2[nH]nc(-c3cc(N4CCC5(CCNC5=O)CC4)ncn3)c2c1
7. CC(C)Oc1ccc2[nH]nc(-c3cc(N4CCN(CCF)CC4)ncn3)c2c1
8. C[C@@H]1CN(c2cc(-c3n[nH]c4ccc(-c5cnn(C)c5)cc34)ncn2)CCO1

Ans:
1: 8.26; 2: 7.16; 3: 7.19; 4: 7.59; 5: 7.37; 6: 8.55; 7: 8.26; 8: 8.72

Could you report pIC50 for every entry in the following list?
1. CCC(=O)N1CCN(c2cc(-c3n[nH]c4ccc(OC(C)C)cc34)ncn2)CC1
2. CCOc1ccc2[nH]nc(-c3cc(N4CCN(C(C)=O)CC4)ncn3)c2c1
3. CN1CCN(c2cc(-c3n[nH]c4ccc(-c5cnn(C)c5)cc34)ncn2)CC1
4. COC[C@H](C)Oc1ccc2[nH]nc(-c3cc(N4CCN(C)CC4)ncn3)c2c1
5. Cn1cc(-c2cc3c(-c4cc(N5CCn6ncnc6C5)ncn4)n[nH]c3cc2F)cn1
6. CC(C)Oc1ccc2[nH]nc(-c3cc(N4CCC(n5cccn5)CC4)ncn3)c2c1

Ans:
1. 8.37
2. 7.74
3. 8.55
4. 8.68
5. 7.19
6. 7.82
